These data points were gathered from patent US20240383886A1.

Molecular target: PTPN2 (Homo sapiens, UniProt P17706)
Construct: expressed in transfected cells; host or cells: 293T (293T.109 HiBiT-PTPN2 line; parental 293T WT from ATCC)
Sequence (P17706 whole entry, species assumed): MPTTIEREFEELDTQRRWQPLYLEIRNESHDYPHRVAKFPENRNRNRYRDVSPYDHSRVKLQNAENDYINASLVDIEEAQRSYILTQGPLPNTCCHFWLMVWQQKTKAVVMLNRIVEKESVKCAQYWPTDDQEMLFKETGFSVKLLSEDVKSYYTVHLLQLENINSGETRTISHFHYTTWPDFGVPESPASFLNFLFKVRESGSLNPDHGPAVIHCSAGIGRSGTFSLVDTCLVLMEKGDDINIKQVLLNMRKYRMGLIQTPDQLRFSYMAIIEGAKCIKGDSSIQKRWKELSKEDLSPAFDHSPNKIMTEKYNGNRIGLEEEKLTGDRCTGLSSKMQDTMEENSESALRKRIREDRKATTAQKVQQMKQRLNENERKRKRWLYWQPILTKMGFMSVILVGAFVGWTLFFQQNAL
Experiment: HiBiT-Degradation 293T.109 PTPN2 (Nano-Glo HiBiT Lytic Assay)
Type: cell-based
Settings: 293T.109 (HiBiT-PTPN2) cells, 24.0 hours
Attribute Measured: DC50

Compound	Tested On	DC50
O=C1CCC(N2C(=O)c3cccc(NCc4cn(C5CN(CC(=O)Nc6ccc7c(F)c(N8CC(=O)NS8(=O)=O)c(O)cc7c6)C5)nn4)c3C2=O)C(=O)N1 (centres unmarked) [Example 58]	PTPN2 (Homo sapiens, UniProt P17706)	0.2 to 1 µM
O=C(CN1CC(n2cc(CNc3cccc4c3C(=O)N(C3CCC(=O)NC3=O)C4=O)nn2)C1)NCCOc1ccc2cc(O)c(N3CC(=O)NS3(=O)=O)c(F)c2c1 (centres unmarked) [Example 42]	PTPN2 (Homo sapiens, UniProt P17706)	0.2 to 1 µM
Cn1c(=O)n(C2CCC(=O)NC2=O)c2ccc(Nc3ccc(CC(=O)Nc4ccc5c(F)c(N6CC(=O)NS6(=O)=O)c(O)cc5c4)cn3)cc21 (centres unmarked) [Example 168]	PTPN2 (Homo sapiens, UniProt P17706)	0.05 to 0.2 µM
Cn1c(=O)n(C2CCC(=O)NC2=O)c2ccc(Nc3ccc(NC(=O)c4ccc5c(F)c(N6CC(=O)NS6(=O)=O)c(O)cc5c4)cc3)cc21 (centres unmarked) [Example 132]	PTPN2 (Homo sapiens, UniProt P17706)	0.05 to 0.2 µM
Cn1c(=O)n(C2CCC(=O)NC2=O)c2ccc(C3CCN(CCN4CC[C@H](COc5ccc6cc(O)c(N7CC(=O)NS7(=O)=O)c(F)c6c5)C4)CC3)cc21 (some centres unmarked) [Example 150]	PTPN2 (Homo sapiens, UniProt P17706)	0.05 to 0.2 µM
Cn1c(=O)n(C2CCC(=O)NC2=O)c2ccc(C3CCN(CCC(=O)NCCOc4ccc5cc(O)c(N6CC(=O)NS6(=O)=O)c(F)c5c4)CC3)cc21 (centres unmarked) [Example 6]	PTPN2 (Homo sapiens, UniProt P17706)	0.05 to 0.2 µM

### Prompt Give the value of DC50 reported for the following: Cc1cc(CC(=O)Nc2ccc3c(F)c(N4CC(=O)NS4(=O)=O)c(O)cc3c2)ccc1Nc1ccc2c(C3CCC(=O)NC3=O)nn(C)c2c1 (centres unmarked) [Example 185]
### Response 0.01 to 0.05 µM

### Prompt Give the value of DC50 reported for the following: O=C1CCC(N2Cc3c(NCC(=O)N4CCC(C(=O)Nc5ccc6c(F)c(N7CC(=O)NS7(=O)=O)c(O)cc6c5)CC4)cccc3C2=O)C(=O)N1 (centres unmarked) [Example 65]
### Response 0.2 to 1 µM

====

DC50 values for the molecules below.
System: PTPN2
Assay: HiBiT-Degradation B16F10.4 PTPN2
Format: cell-based
Settings: B16F10.4 cells, 24.0 hours

Illustrative cases are given below, each with its answer.
Molecule	DC50
Cn1c(=O)n(C2CCC(=O)NC2=O)c2ccc(N3CCC(CC(=O)N4CC=C(c5ccc6cc(O)c(N7CC(=O)NS7(=O)=O)c(F)c6c5)C4)CC3)cc21 (stereo not drawn)	50 to 200 nM
Cn1c(=O)n(C2CCC(=O)NC2=O)c2ccc(C3CCN(CCCCCCOc4ccc5cc(O)c(N6CC(=O)NS6(=O)=O)c(F)c5c4)CC3)cc21 (stereo not drawn)	50 to 200 nM
O=C1CCC(N2C(=O)c3cccc(NCc4cn(C5CN(C(=O)Nc6ccc7c(F)c(N8CC(=O)NS8(=O)=O)c(O)cc7c6)C5)nn4)c3C2=O)C(=O)N1 (stereo not drawn)	≥ 1000 nM

### Prompt Give the value of DC50 reported for the following: O=C1CCC(N2C(=O)c3cccc4c(C5CCN(CC(=O)Nc6ccc7c(F)c(N8CC(=O)NS8(=O)=O)c(O)cc7c6)CC5)ccc2c34)C(=O)N1 (stereo not drawn)
### Response 50 to 200 nM

### Prompt Give the value of DC50 reported for the following: Cn1nc(C2CCC(=O)NC2=O)c2ccc(C3CCN(CC(=O)Nc4ccc5c(F)c(N6CC(=O)NS6(=O)=O)c(O)cc5c4)CC3)cc21 (stereo not drawn)
### Response 50 to 200 nM

### Prompt Give the value of DC50 reported for the following: Cn1c(=O)n(C2CCC(=O)NC2=O)c2ccc(C3CCN(CCNc4ccc5c(F)c(N6CC(=O)NS6(=O)=O)c(O)cc5c4)CC3)cc21 (stereo not drawn)
### Response ≥ 1000 nM

### Prompt Give the value of DC50 reported for the following: Cn1c(=O)n(C2CCC(=O)NC2=O)c2ccc(-c3ccc(CCC(=O)Nc4ccc5c(F)c(N6CC(=O)NS6(=O)=O)c(O)cc5c4)cc3)cc21 (stereo not drawn)
### Response 50 to 200 nM

### Prompt Give the value of DC50 reported for the following: Cn1c(=O)n(C2CCC(=O)NC2=O)c2ccc(Nc3ccc(C(=O)NCCOc4ccc5cc(O)c(N6CC(=O)NS6(=O)=O)c(F)c5c4)cc3)cc21 (stereo not drawn)
### Response 200 to 1000 nM
